All figures here come from patent US6465457B1.

Tested on: Thanatephorus cucumeries (Rice)
Test description: Foliar fungal disease test on plants: Thanatephorus cucumeries (Rice)
Assay type: in vivo
Experimental context: 10 ppm foliar spray only, one or two days before inoculation
Assignment: determine reported POCO (Percentage of Control) disease level, Thanatephorus cucumeries (Rice) for the given compounds.

Check out these entries, answers already filled in.
structure_notation=COC=C(C(=O)OC)c1ccccc1COC(=S)Nc1cccc(OC)c1 assay_system="Thanatephorus cucumeries (Rice)" reported_value="30 (30 = 20.1-30% disease present)"
structure_notation=COC=C(C(=O)OC)c1ccccc1COC(=O)n1ccc2ccccc21 assay_system="Thanatephorus cucumeries (Rice)" reported_value="60 (60 = 30.1-60% disease present)"
structure_notation=COC=C(C(=O)OC)c1ccccc1COC(=S)Oc1ccccc1 assay_system="Thanatephorus cucumeries (Rice)" reported_value="60 (60 = 30.1-60% disease present)"

Turning now to a further record.
# lookup: POCO (Percentage of Control) disease level, Thanatephorus cucumeries (Rice) of COC=C(C(=O)OC)c1ccccc1COC(=S)Nc1ccccc1
0 (0 = 0% disease present)

###

Tested on: Venturia inaequalis (Apples)
Test description: Foliar fungal disease test on plants: Venturia inaequalis (Apples)
Format: in vivo
Experimental context: 10 ppm foliar spray only, one or two days before inoculation
Parameter: POCO (Percentage of Control) disease level, Venturia inaequalis (Apples)

structure_notation=COC=C(C(=O)OC)c1ccccc1COC(=O)Nc1ccc(F)c(F)c1 reported_value="60 (60 = 30.1-60% disease present)"

# lookup: POCO (Percentage of Control) disease level, Venturia inaequalis (Apples) of COC=C(C(=O)OC)c1ccccc1COC(=O)N(CC(F)F)c1cccc([N+](=O)[O-])c1
0 (0 = 0% disease present)

###

Assignment: determine reported POCO (Percentage of Control) disease level, Puccinia recondita (Wheat) for the given compounds.
Test system: Puccinia recondita (Wheat)
Test description: Foliar fungal disease test on plants: Puccinia recondita (Wheat)
Type: in vivo
Experimental context: 10 ppm foliar spray only; plants inoculated with Puccinia recondita 48 hours before treatment

Check out these entries, answers already filled in.
compound="COC=C(C(=O)OC)c1ccccc1COC(=S)Nc1cccc(OC)c1 [7 (6)]" reported_value="0+ (0 = 0% disease present)"
compound="COC=C(C(=O)OC)c1ccccc1COC(=O)Nc1cccc(F)c1 [8 (1)]" reported_value="0+ (0 = 0% disease present)"

Turning now to a further record.
# lookup: POCO (Percentage of Control) disease level, Puccinia recondita (Wheat) of COC=C(C(=O)OC)c1ccccc1COC(=O)Nc1ccc(F)c(F)c1 [28 (1)]
5+ (5 = 3.1-5% disease present)

###

System: Septoria nodorum (Wheat)
Test description: Foliar fungal disease test on plants: Septoria nodorum (Wheat)
Type: in vivo
Experimental context: 100 ppm a.i. foliar spray or root drench (approx. 40 ppm in dry soil), one or two days before inoculation
Assignment: determine reported POCO (Percentage of Control) disease level, Septoria nodorum (Wheat) for the given compounds.

Check out these entries, answers already filled in.
structure_notation=COC=C(C(=O)OC)c1ccccc1COC(=O)N(C)c1cccc([N+](=O)[O-])c1F reported_value="30 (30 = 20.1-30% disease present)"
structure_notation=COC=C(C(=O)OC)c1ccccc1COC(=O)N(C)c1ccccc1Cl reported_value="3 (3 = 1.1-3% disease present)"
structure_notation=COC=C(C(=O)OC)c1ccccc1COC(=O)Nc1c(F)cccc1F reported_value="30 (30 = 20.1-30% disease present)"
structure_notation=CCN(C(=O)OCc1ccccc1C(=COC)C(=O)OC)c1cc(F)ccc1F reported_value="30 (30 = 20.1-30% disease present)"
structure_notation=COC=C(C(=O)OC)c1ccccc1COC(=S)Nc1cccc(C(F)(F)F)c1 reported_value="60 (60 = 30.1-60% disease present)"
structure_notation=CCN(C(=O)OCc1ccccc1C(=COC)C(=O)OC)c1cccc([N+](=O)[O-])c1F reported_value="60 (60 = 30.1-60% disease present)"
structure_notation=COC=C(C(=O)OC)c1ccccc1COC(=O)N(C)c1cccc(C(F)(F)F)c1 reported_value="0 (0 = 0% disease present)"
structure_notation=CCN(C(=O)OCc1ccccc1C(=COC)C(=O)OC)c1c(F)cccc1F reported_value="5 (5 = 3.1-5% disease present)"

Look up POCO (Percentage of Control) disease level, Septoria nodorum (Wheat) for the entries below, preserving their order.
1. COC=C(C(=O)OC)c1ccccc1COC(=O)N(C)c1ccccc1[N+](=O)[O-]
2. COC=C(C(=O)OC)c1ccccc1COC(=O)Nc1ccc(F)cc1F

1. 5 (5 = 3.1-5% disease present)
2. 60 (60 = 30.1-60% disease present)

Look up POCO (Percentage of Control) disease level, Septoria nodorum (Wheat) for the entries below, preserving their order.
1. CCN(C(=O)OCc1ccccc1C(=COC)C(=O)OC)c1ccccc1
2. COC=C(C(=O)OC)c1ccccc1COC(=O)N(C)c1ccccc1C#N
3. C#CCN(C(=O)OCc1ccccc1C(=COC)C(=O)OC)c1ccccc1OC
4. CCN(C(=O)OCc1ccccc1C(=COC)C(=O)OC)c1ccccc1F
5. COC=C(C(=O)OC)c1ccccc1COC(=O)N(C)c1ccc(F)c(Cl)c1
6. CCN(C(=O)OCc1ccccc1C(=COC)C(=O)OC)c1ccc(F)c(F)c1

1: 0 (0 = 0% disease present); 2: 30 (30 = 20.1-30% disease present); 3: 10 (10 = 5.1-10% disease present); 4: 0 (0 = 0% disease present); 5: 0 (0 = 0% disease present); 6: 0 (0 = 0% disease present)

Look up POCO (Percentage of Control) disease level, Septoria nodorum (Wheat) for the entries below, preserving their order.
1. CCN(C(=O)OCc1ccccc1C(=COC)C(=O)OC)c1cccc([N+](=O)[O-])c1
2. COC=C(C(=O)OC)c1ccccc1COC(=O)Nc1ccccc1C#N
3. CCN(C(=O)OCc1ccccc1C(=COC)C(=O)OC)c1ccc(F)cc1
4. COC=C(C(=O)OC)c1ccccc1COC(=S)Nc1ccccc1SC
5. CO/C=C(/C(=O)OC)c1ccccc1COC(=O)Nc1ccccc1
6. COC=C(C(=O)OC)c1ccccc1COC(=O)N(C)c1ccccc1OC
7. COC=C(C(=O)OC)c1ccccc1OC(=O)NCc1ccccc1
8. C=CCN(C(=O)OCc1ccccc1C(=COC)C(=O)OC)c1c(F)cccc1F

["0 (0 = 0% disease present)", "60 (60 = 30.1-60% disease present)", "0 (0 = 0% disease present)", "0 (0 = 0% disease present)", "30 (30 = 20.1-30% disease present)", "5 (5 = 3.1-5% disease present)", "60 (60 = 30.1-60% disease present)", "10 (10 = 5.1-10% disease present)"]

Look up POCO (Percentage of Control) disease level, Septoria nodorum (Wheat) for the entries below, preserving their order.
1. COC=C(C(=O)OC)c1ccccc1COC(=O)N(C)c1ccc(F)cc1
2. COC=C(C(=O)OC)c1ccccc1COC(=O)Nc1cccc([N+](=O)[O-])c1
3. COC=C(C(=O)OC)c1ccccc1COC(=O)N(C)c1cccc(SC)c1
4. COC=C(C(=O)OC)c1ccccc1COC(=O)N(C)c1ccc(F)c(F)c1

1: 0 (0 = 0% disease present); 2: 30 (30 = 20.1-30% disease present); 3: 0 (0 = 0% disease present); 4: 0 (0 = 0% disease present)

# lookup: POCO (Percentage of Control) disease level, Septoria nodorum (Wheat) of COC=C(C(=O)OC)c1ccccc1COC(=O)N(C)c1ccc(F)cc1F
0 (0 = 0% disease present)
